Hey, just so you know, these numbers are from the kinase profiling compilation of Christmann-Franck et al. (2016).

- test target: BRSK1 (human) (UniProt Q8TDC3)
- Sequence (Q8TDC3 whole entry, looked up): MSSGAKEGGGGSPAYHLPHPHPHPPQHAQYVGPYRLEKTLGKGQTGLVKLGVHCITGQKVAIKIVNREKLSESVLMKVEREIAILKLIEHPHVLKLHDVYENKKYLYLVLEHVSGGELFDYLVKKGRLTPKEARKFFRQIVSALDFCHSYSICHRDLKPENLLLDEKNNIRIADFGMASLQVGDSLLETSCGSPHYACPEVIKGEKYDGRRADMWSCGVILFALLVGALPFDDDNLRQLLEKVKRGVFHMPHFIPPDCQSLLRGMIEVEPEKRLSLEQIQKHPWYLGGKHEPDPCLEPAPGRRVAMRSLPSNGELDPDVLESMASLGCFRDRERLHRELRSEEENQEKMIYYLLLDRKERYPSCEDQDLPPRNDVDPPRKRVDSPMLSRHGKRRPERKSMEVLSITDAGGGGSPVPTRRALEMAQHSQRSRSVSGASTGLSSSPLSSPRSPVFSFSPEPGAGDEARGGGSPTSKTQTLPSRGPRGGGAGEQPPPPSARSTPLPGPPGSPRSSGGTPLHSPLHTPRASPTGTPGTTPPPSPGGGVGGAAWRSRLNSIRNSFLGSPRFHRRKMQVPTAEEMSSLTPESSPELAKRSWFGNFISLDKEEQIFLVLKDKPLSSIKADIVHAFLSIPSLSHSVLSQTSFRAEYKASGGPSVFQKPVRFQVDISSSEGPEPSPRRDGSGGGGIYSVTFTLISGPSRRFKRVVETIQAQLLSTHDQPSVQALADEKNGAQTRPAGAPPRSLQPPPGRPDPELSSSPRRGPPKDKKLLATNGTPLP
- test details: radiometric filter-binding kinase assay, Kinase HotSpot
- condition summary: compound 0.5 µM; ATP 10 µM
List of residual activity values.
readout kind: residual activity (%)

INSERT INTO measurements (smiles_code, readout_kind, measurement) VALUES
  ('c1ccc2c(-c3ccncc3)c[nH]c2c1', 'residual activity', 90.3),
  ('CN(C)c1ccc(/C=C2\C(=O)Nc3ccccc32)cc1', 'residual activity', 99.6),
  ('N#Cc1c[nH]c2c[nH]/c(=N\Cc3cccnc3)cc2/c1=N\c1ccc(F)c(Cl)c1', 'residual activity', 94.5),
  ('Cc1cccc(-c2nc(C(C)(C)C)[nH]c2-c2ccc3c(c2)OCO3)n1', 'residual activity', 101),
  ('NC(=O)c1cccc(-c2cc(Nc3ccc(OC(F)(F)F)cc3)ncn2)c1', 'residual activity', 98.4),
  ('CN(C)S(=O)(=O)c1ccc2c(c1)/C(=C/c1cc3c([nH]1)CCCC3)C(=O)N2', 'residual activity', 32.4),
  ('O=C1NC(=O)c2c1c1c3ccccc3[nH]c1n1cncc21', 'residual activity', 22.5),
  ('O=C1C(Cl)=C(N2C(=O)CCC2=O)C(=O)c2ccccc21', 'residual activity', 96.9),
  ('O=C(c1cc2cc(O)ccc2[nH]1)c1cc2cc(O)ccc2[nH]1', 'residual activity', 53.6),
  ('CCCCc1c(-c2ccc(OC)cc2)[nH]c2nccnc12', 'residual activity', 89.1),
  ('Fc1ccc(-c2nc3n(c2-c2ccncc2)CCS3)cc1', 'residual activity', 93.9),
  ('Cc1nc(-c2ccccc2)c(-c2ccncc2)o1', 'residual activity', 99.8),
  ('CC(C)(C)c1cc(C=C(C#N)C#N)cc(Br)c1O', 'residual activity', 94),
  ('Cc1cncc2cccc(S(=O)(=O)N3CCCN(C(=O)CN)C[C@H]3C)c12', 'residual activity', 94.2),
  ('COc1ccc(C(=O)Nc2sc3c(c2C(N)=O)CCCC3)cc1OC', 'residual activity', 105);
